- Assay overview: in vitro
- Study conditions: human, hela cells, % viability
Parameter measured: viability at 28.5 h, 10 µM (%)
Just the number in %, nothing appended.

[ask] May I ask what viability at 28.5 h, 10 µM has been recorded for Cc1oc(C)c(C(=O)Nc2cccc(C(=O)O)c2)c1C(=O)Nc1cccc(C(=O)O)c1 ?
[reply] 108

[ask] May I ask what viability at 28.5 h, 10 µM has been recorded for O=C(COc1ccc(S(=O)(=O)N2CCCC2)cc1Cl)NCC1CCCO1 (stereo not shown) ?
[reply] 86.6

[ask] May I ask what viability at 28.5 h, 10 µM has been recorded for O=C(O)c1cccc(S(=O)(=O)N(CCO)CCO)c1 ?
[reply] 93.2

[ask] May I ask what viability at 28.5 h, 10 µM has been recorded for NC(=S)NC(=O)CN1C(=O)c2ccccc2C1=O ?
[reply] 90.9

[ask] May I ask what viability at 28.5 h, 10 µM has been recorded for CC(C(=O)N(C)C)n1cccc1 (stereo not shown) ?
[reply] 86.4

[ask] May I ask what viability at 28.5 h, 10 µM has been recorded for Cn1c(=O)n(CC(=O)NC23CC4CC(CC(C4)C2)C3)c2cccnc21 ?
[reply] 81.7

[ask] May I ask what viability at 28.5 h, 10 µM has been recorded for Cn1ccnc1C1(O)CC2CCC(C1)N2C(=O)c1ccc(F)cc1 (stereo not shown) ?
[reply] 98.4

[ask] May I ask what viability at 28.5 h, 10 µM has been recorded for O=C(CSc1ccc2ccccc2c1)NCc1ccco1 ?
[reply] 80.3

[ask] May I ask what viability at 28.5 h, 10 µM has been recorded for O=S(=O)([O-])c1cc(S(=O)(=O)O)ccc1Nc1cc2c(nc3ccccc3[n+]2-c2ccccc2)c2ccccc12 [CBK260997N] ?
[reply] 102

[ask] May I ask what viability at 28.5 h, 10 µM has been recorded for N#Cc1ccccc1CSc1nnc(Cc2cccc3ccccc23)n1-c1ccccc1 ?
[reply] 89.7
